quantityMeasured: melting point

CCC(CC)c1ccc(OC)c2nc(Oc3ccc(C(C)=O)cc3C)n(C)c12: 114 to 115 °C
CCC(CC)c1ccc(OC)c2nc(Oc3ccc(OC(F)(F)F)cc3CN(C)C)n(C)c12: 95 to 97 °C
CCC(CC)c1ccc(Cl)c2nc(Oc3c(C)cc([S+](C)[O-])cc3Cl)n(C)c12 (stereo not drawn): 182 to 184 °C
CCC(CC)c1ccc(Cl)c2nc(Oc3c(Cl)cc(Cl)cc3N3CCN(C)CC3)n(C)c12: 162 to 164 °C

Input: Tell me the measured melting point of CCC(CCO)c1ccc(Cl)c2nc(Oc3c(C)cc(Cl)cc3Cl)n(C)c12 (stereo not drawn) , please.
Output: 165 to 167 °C
